Test system: HCV replicon
Experiment: microbe, parasite or virus in culture
Format: cell-based
Conditions: Hepatitis C virus, 48 h, read-out: Replicon IC5Os
pIC50: −log10 of the molar value.
Entries and their pIC50

// below: answered compounds
- COMPOUND: "CCn1c(-c2ccc(NS(C)(=O)=O)cc2)c(C#N)c2ccc(OCCN3CCSCC3)cc21 [Compound 480]"
  pIC50: "> 6.30"
- COMPOUND: "CCS(=O)(=O)Nc1ccc(-c2c(C#N)c3ccc(OC)cc3n2CC2CC2)cc1 [Compound 612]"
  pIC50: "5.70 to 6.30"
- COMPOUND: "CCn1c(-c2cccc(NC(=O)Nc3ccc(C(C)C)cc3)c2)c(C#N)c2ccc(OC)cc21 [Compound 403]"
  pIC50: "5.70 to 6.30"

// query For the compound COC(=O)Nc1ccc(-c2c(C#N)c3ccc(OC(F)F)cc3n2CC2CC2)cc1 [Compound 734] , give its reported pIC50.
// result 5.70 to 6.30

// query For the compound CCC(=O)Nc1ccc(-c2c(C#N)c3ccc(OC(C)C)cc3n2CC)cc1 [Compound 759] , give its reported pIC50.
// result > 6.30

// query For the compound CCOc1ccc2c(C#N)c(-c3ccc(NS(=O)(=O)CC)cc3)n(CC(C)C)c2c1 [Compound 470] , give its reported pIC50.
// result > 6.30

// query For the compound CCOC(=O)Nc1ccc(-c2c(C#N)c3cc(Cl)ccc3n2CC)cc1 [Compound 618] , give its reported pIC50.
// result > 6.30

// query For the compound CCCCn1c(-c2ccc(NC(=O)NC(C)C)cc2)c(C#N)c2ccc(OC)cc21 [Compound 751] , give its reported pIC50.
// result 5.70 to 6.30

// query For the compound C=CCOC(=O)Nc1cccc(-c2c(C#N)c3ccc(OC)cc3n2CC)c1 [Compound 299] , give its reported pIC50.
// result 5.70 to 6.30

* * *

Entries and their melting point

// below: answered molecules
- ENTRY_SMILES: "CCn1c(-c2ccc(NS(=O)(=O)C3CC3)cc2)c(C#N)c2cc(OC)ccc21"
  melting point: "149 to 152 °C"
- ENTRY_SMILES: "CCn1c(-c2ccc(NC(=O)C3CC3)cc2)c(C#N)c2ccc(OCCF)cc21"
  melting point: "263 to 265 °C"

// query For the molecule CCn1c(C#Cc2ccccc2)c(C#N)c2ccc(C(N)=O)cc21 , give its reported melting point.
// result 262 to 265 °C

// query For the molecule CCCNC(=O)Nc1ccc(-c2c(C#N)c3ccc(OC(F)F)cc3n2CC2CC2)cc1 , give its reported melting point.
// result 194 to 196 °C

// query For the molecule CCC(=O)Nc1ccc(C#Cc2c(C#N)c3ccc(OC)cc3n2CC)cc1 , give its reported melting point.
// result 223 to 228 °C

// query For the molecule CCOC(=O)Nc1ccc(-c2c(C#N)c3cc(OC)ccc3n2CC)cc1 , give its reported melting point.
// result 154 to 155 °C

* * *

Tested on: HCV replicon
Assay: microbe, parasite or virus in culture
Format: cell-based
Conditions: Replicon IC50 values are determined by firefly luciferase signal; bicistronic replicon, 2 days; read-out: Replicon IC5Os
METRIC_NAME: IC50

// below: answered compounds
- ENTRY_SMILES: "C#CCCOC(=O)Nc1cccc(-c2c(C#N)c3ccc(OC)cc3n2CC)c1"
  IC50: "0.5 to 2 µM"
- ENTRY_SMILES: "CCn1cc(C(=O)c2cccc(OC)c2)c2ccc(OC)cc21"
  IC50: "> 2 µM"
- ENTRY_SMILES: "CCn1c(-c2cccc(NC(=O)c3ccccc3)c2)c(C#N)c2ccc(OC)cc21"
  IC50: "> 2 µM"
- ENTRY_SMILES: "CCNC(=O)c1cccc(-c2c(C#N)c3ccc(OC)cc3n2CC)c1"
  IC50: "> 2 µM"
- ENTRY_SMILES: "CCn1c(-c2ccc(C(=O)NC3CC3)cc2)c(C#N)c2ccccc21"
  IC50: "> 2 µM"

# evaluate next
// query Please report the measured IC50 for CCn1c(-c2ccc3c(c2)CCN3)c(C#N)c2ccc(OC)cc21 tested on HCV replicon.
// result > 2 µM

* * *

Test system: HCV replicon
Experiment: microbe, parasite or virus in culture
Type: cell-based
Settings: Replicon IC50 values are determined by firefly luciferase signal; bicistronic replicon, 2 days; read-out: Replicon IC5Os
pIC50: −log10 of the molar value.
Entries and their pIC50

// below: answered compounds
- ENTRY_SMILES: "CCn1c(-c2cccc3c2oc2ccccc23)c(C#N)c2ccc(OC)cc21"
  RESULT: "< 5.70"
- ENTRY_SMILES: "CCn1cc(C#N)c2ccc(Br)cc21"
  RESULT: "< 5.70"
- ENTRY_SMILES: "CCn1c(C#Cc2ccsc2)c(C#N)c2ccc(OC)cc21"
  RESULT: "5.70 to 6.30"

# evaluate next
// query Please report the measured pIC50 for COc1ccc2c(C#N)c(C#Cc3ccc(C)cc3)[nH]c2c1 tested on HCV replicon.
// result < 5.70

* * *

Test system: HCV replicon
Assay: microbe, parasite or virus in culture
Format: cell-based
Details: Replicon IC50 values are determined by firefly luciferase signal; bicistronic replicon, 2 days; read-out: Replicon IC5Os
METRIC_NAME: IC50

// below: answered molecules
- MOLECULE: "CCCNC(=O)Nc1cccc(-c2c(C#N)c3ccc(OC)cc3n2CCC)c1 [Compound 600]"
  TEST_SYSTEM: "HCV replicon"
  RESULT: "> 2000 nM"
- MOLECULE: "CCn1c(-c2ccc3ccccc3c2)c(C#N)c2ccc(OC)cc21 [Compound 426]"
  TEST_SYSTEM: "HCV replicon"
  RESULT: "500 to 2000 nM"
- MOLECULE: "CCn1c(-c2cc3ccccc3o2)c(C#N)c2ccc(OC)cc21 [Compound 282]"
  TEST_SYSTEM: "HCV replicon"
  RESULT: "> 2000 nM"
- MOLECULE: "CCn1c(-c2cccc(C(N)=O)c2)c(C#N)c2ccc(OC)cc21 [Compound 291]"
  TEST_SYSTEM: "HCV replicon"
  RESULT: "> 2000 nM"

# evaluate next
// query For the molecule CCn1c(-c2cccc(NC(=O)c3ccc4nonc4c3)c2)c(C#N)c2ccc(OC)cc21 [Compound 330] , give its reported IC50.
// result > 2000 nM

* * *

Test system: HCV replicon
Experiment: microbe, parasite or virus in culture
Assay type: cell-based
Details: Hepatitis C virus, 48 h, read-out: Replicon IC5Os
Entries and their IC50

- COMPOUND: "COc1ccc2c(C#N)c(-c3cccc(NS(C)(=O)=O)c3)n(C3CCCC3)c2c1 [Compound 720]"
  RESULT: "0.5 to 2 µM"

// query Please report the measured IC50 for CCOC(=O)Nc1cccc(-c2c(C#N)c3ccc(OCCCN4CCOCC4)cc3n2CC)c1 [Compound 493] tested on HCV replicon.
// result < 0.5 µM

// query Please report the measured IC50 for CCOc1ccc2c(C#N)c(-c3ccc(NS(C)(=O)=O)cc3)n(CC(C)C)c2c1 [Compound 471] tested on HCV replicon.
// result < 0.5 µM

// query Please report the measured IC50 for CCn1c(-c2cccc(NC(=O)OCCF)c2)c(C#N)c2ccc(OC)cc21 [Compound 302] tested on HCV replicon.
// result 0.5 to 2 µM

// query Please report the measured IC50 for CCCn1c(-c2ccc(NC(=O)NCC)cc2)c(C#N)c2ccc(OC)cc21 [Compound 626] tested on HCV replicon.
// result 0.5 to 2 µM

* * *

Test system: HCV replicon
Assay: microbe, parasite or virus in culture
Format: cell-based
Details: Hepatitis C virus, 48 h, read-out: Replicon IC5Os
pIC50: −log10 of the molar value.
Entries and their pIC50

- COMPOUND: "CCn1c(-c2ccc3c(c2)CCN3S(C)(=O)=O)c(C#N)c2ccc(OC)cc21 [Compound 701]"
  METRIC_NAME: "pIC50"
  RESULT: "5.70 to 6.30"
- COMPOUND: "CCn1c(-c2ccc(N)cc2)c(C#N)c2ccc(OC(C)C)cc21 [Compound 758]"
  METRIC_NAME: "pIC50"
  RESULT: "> 6.30"

# evaluate next
// query For the compound CCCCNC(=O)Nc1ccc(-c2c(C#N)c3ccc(OC)cc3n2CCCC)cc1 [Compound 750] , give its reported pIC50.
// result > 6.30

* * *

Tested on: HCV replicon
Test: microbe, parasite or virus in culture
Assay type: cell-based
Conditions: Replicon IC50 values are determined by firefly luciferase signal; bicistronic replicon, 2 days; read-out: Replicon IC5Os
pIC50: −log10 of the molar value.
METRIC_NAME: pIC50

// below: answered compounds
- ENTRY_SMILES: "CCn1c(-c2ccc(C(=O)N3CCCC3)cc2)c(C#N)c2ccc(OC)cc21"
  METRIC_NAME: "pIC50"
  RESULT: "< 5.70"
- ENTRY_SMILES: "CCn1c(C#Cc2ccc(Cl)cc2)c(C#N)c2ccc(OC)cc21"
  METRIC_NAME: "pIC50"
  RESULT: "5.70 to 6.30"
- ENTRY_SMILES: "CCn1c(-c2cccc(N)c2)c(C#N)c2ccc(C(F)(F)F)cc21"
  METRIC_NAME: "pIC50"
  RESULT: "< 5.70"

# evaluate next
// query For the compound CCn1c(-c2ccc(NC(=O)NCCCCl)cc2)c(C#N)c2ccc(OC)cc21 , give its reported pIC50.
// result < 5.70
